Data origin, for the record: the supplement of paper PMC11208160

Assay: recombinant UMI read abundance after kanamycin selection (control-corrected) (log10(CPM+1)); higher = more efficient recombination; extreme values may be limits of the assay; sequences stand for … in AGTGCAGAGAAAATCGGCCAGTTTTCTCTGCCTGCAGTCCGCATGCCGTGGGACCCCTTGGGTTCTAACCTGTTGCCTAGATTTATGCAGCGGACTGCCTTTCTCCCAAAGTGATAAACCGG…AGGTTGGTTTCACT; site = the 11-nt donor;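 note: IS621 bridge recombinase in Escherichia coli cells against a fixed T5 target plasmid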
In this section we review reported recombinant UMI read abundance (log10) values for a set of sequences.
OBSERVATION_TYPE: recombinant UMI read abundance (log10)

| SEQUENCE_CODE | MEASURED |
| --- | --- |
| GTTCGGGCATGGACCGGTTTTCCCGGTAATCCGTATTTGCA (site GTTCGGGCTTG) | 2.23 |
| GCCACCGCATGGACCGGTTTTCCCGGTAATCCGTATTTGCG (site GCCACCGCTCG) | 0.939 |
| GGCAAGCCATGGACCGGTTTTCCCGGTAATCCGTATTTGAA (site GGCAACCCTTT) | 0 |
| CGGGAAACATGGACCGGTTTTCCCGGTAATCCGTATTTGCA (site CTGGAAACTTG) | 1.04 |
| ACGAGAACATGGACCGGTTTTCCCGGTAATCCGTATTTGAG (site ACAAGAACTCT) | 2.65 |
| CCTCGTACATGGACCGGTTTTCCCGGTAATCCGTATTTGAG (site CCTCGTACTCT) | 0.0191 |
| AGTGGAACATGGACCGGTTTTCCCGGTAATCCGTATTTGTT (site GGTGGAACTAA) | 0.00617 |
| CCCTTCTCATGGACCGGTTTTCCCGGTAATCCGTATTTGCG (site CCCTTCTCTCC) | 0.195 |
| GTGCAGGCATGGACCGGTTTTCCCGGTAATCCGTATTTGTG (site GTGGAGGCTCA) | 0.393 |
